Test system: HCC-2998 colon
Assay: NCI tumour cell line growth inhibition, 48 h
readout: TGI

Solved entries (count: 8):
>>> df
                                   molecule  recorded_result
0  COC(=O)C1=C(C)NC(C)=C(C(=O)OC)C1c1ccccc1[N+](=O)[O-]         > 100 µM
1  CN1CCN(Cc2ccc(NC(=O)c3cncc(C#Cc4cncc5[nH]ncc45)c3)cc2C(F)(F)F)CC1          5.88 µM
2                    C/C(=N/OCCC(=O)O)C1CC1         > 100 µM
3  C=C1CC2C[C@H](OS(=O)(=O)c3ccc(C)cc3)C(C1)N2C (some centres undefined)         > 100 µM
4  CC1CC2OC(=N)C1(C#N)C2(C#N)C#N (centres undefined)          34.4 µM
5  Nc1ccc(C(=O)N/C(=C\c2ccc3c(c2)OCO3)c2nc3ccc4c(c3[nH]2)C(=O)c2ccccc2C4=O)cc1         > 100 µM
6  O=C1/C(=C/Cc2ccco2)N=C(c2ccccc2)N1c1nc2c(Cl)cc(Cl)cc2s1         > 100 µM
7  COc1ccc(C(=O)C(CN(C)C)c2ccccc2)cc1 (centres undefined)          3.94 µM

Next item in the queue.
// query TGI value for entry O=C1NC(=Nc2ccccc2Cl)SC1C(=O)Nc1ccc([N+](=O)[O-])cc1[N+](=O)[O-] (centres undefined)
> 100 µM

----------
Tested on: MALME-3M melanoma
Experiment: NCI tumour cell line growth inhibition, 48 h
Recorded measurements of GI50, one per entry

Query for MALME-3M melanoma: what GI50 does the record show for "CCc1cc(Nc2nccc(-c3c(-c4ccc(OC)c(C(=O)Nc5c(F)cccc5F)c4)nc4ccccn34)n2)c(OC)cc1N1CCC(N2CCN(S(C)(=O)=O)CC2)CC1" ?
> 100 µM

----------
Recorded measurements of TGI, one per entry
Tested on: U251 CNS
Assay: NCI tumour cell line growth inhibition, 48 h

Solved entries (count: 2):
>>> df
                                        mol  target_or_test_system  recorded_result
0  CCc1cc(Nc2nccc(-c3c(-c4ccc(OC)c(C(=O)Nc5c(F)cccc5F)c4)nc4ccccn34)n2)c(OC)cc1N1CCC(N2CCN(S(C)(=O)=O)CC2)CC1               U251 CNS         > 100 µM
1      O=C(c1cccs1)N(C(=O)N1CCCCC1)c1ccccc1               U251 CNS         > 100 µM

Next item in the queue.
// query TGI value for entry "Cn1cc(C2=C(c3cccc(Cl)c3)C(=O)NC2=O)c2ccccc21"
> 25 µM

----------
Tested on: HS 578T breast
Assay: NCI tumour cell line growth inhibition, 48 h
Recorded measurements of TGI, one per entry

Query for HS 578T breast: what TGI does the record show for CCOC(=O)C1=C(C)N(c2ccc(Cl)cc2)C2(O)C=CC(=O)C3C(=O)N(c4ccccc4)C(=O)C132 (stereo not drawn) ?
12.8 µM

Query for HS 578T breast: what TGI does the record show for "N#Cc1c(NC(=S)Nc2ccccc2)sc2c1CCCC2" ?
> 100 µM

Query for HS 578T breast: what TGI does the record show for "CO[C@H]1/C=C/C=C/C=C/C[C@H](OC(=O)[C@@H](C)NC(=O)C2CCCCC2)[C@H](C)[C@@H](O)/C(C)=C\CCC2=CC(=O)C=C(NC(=O)C1)C2=O" ?
0.59 µM

Query for HS 578T breast: what TGI does the record show for "COc1ccc(OC)c(/C=C/C(=O)c2ccc(SC)cc2)c1" ?
> 100 µM

Query for HS 578T breast: what TGI does the record show for "CCOC(=O)/C=C/C(Br)=C(Br)/C=C/C(=O)OCC" ?
> 76.2 µM

Query for HS 578T breast: what TGI does the record show for "O=C(c1cccs1)N(C(=O)N1CCCCC1)c1ccccc1" ?
> 100 µM

Query for HS 578T breast: what TGI does the record show for "CC(C)(C)C1=CC(O)(c2c3ccccc3c(C3(O)C=C(C(C)(C)C)C(=O)C(C(C)(C)C)=C3)c3ccccc23)C=C(C(C)(C)C)C1=O" ?
> 100 µM

Query for HS 578T breast: what TGI does the record show for "NS(=O)(=O)c1ccc(NS(=O)(=O)c2ccc(NC(=O)N(c3ccccc3)c3ccccc3)cc2)cc1" ?
> 100 µM

----------
Recorded measurements of TGI, one per entry
Tested on: BT-549 breast
Assay: NCI tumour cell line growth inhibition, 48 h

Solved entries (count: 8):
>>> df
                                   compound  recorded_result
0  Cc1nc(C)c(C(=O)NNC(=O)c2ccccc2)cc1C(=O)NNC(=O)c1ccccc1         > 100 µM
1  O=S1(=O)OCCOS(=O)(=O)C1S(=O)(=O)c1cccc2ccccc12         > 100 µM
2      Cc1cccc(-c2cc(=O)c3cc(C)cnc3[nH]2)c1        > 58.3 µM
3      O=C(c1cccs1)N(C(=O)N1CCCCC1)c1ccccc1         > 100 µM
4  O=[N+]([O-])C1(CO)COC2(OC1)c1ccccc1-c1ccccc12        > 88.2 µM
5    Cc1cccc2c1C(=O)/C(=C/c1ccccc1C(=O)O)C2         > 100 µM
6             O=C(O)CNCc1c2ccccc2nc2ccccc12         > 100 µM
7  Nc1nc(Cl)cc(NCC2CC(O)(CO)C2)n1 (stereo not given)         > 100 µM

// query TGI value for entry CCOC(=O)N1c2c(c3ccccc3n2C(=O)OCC)C(=O)C(OC)N1C(=O)OCC (stereo not given)
> 100 µM

// query TGI value for entry "COc1cc(OC)cc(-c2nc3ccccc3c(=O)[nH]2)c1"
> 100 µM

----------
Test system: CCRF-CEM leukemia
Experiment: NCI tumour cell line growth inhibition, 48 h
readout: TGI

molecule	recorded-result
CC[C@@]1(O)C(=O)N(CCN(C)C)Cc2c1cc1n(c2=O)Cc2cc3ccccc3nc2-1	> 100 µM

Query for CCRF-CEM leukemia: what TGI does the record show for "Cc1cncc2cccc(S(=O)(=O)N3CCCNC[C@@H]3C)c12" ?
> 100 µM

Query for CCRF-CEM leukemia: what TGI does the record show for "CC(=O)O[C@H]1CC[C@]2(C=O)[C@H]3CC[C@]4(C)[C@@H](C5=CC(=O)OC5)CC[C@]4(O)[C@@H]3CC[C@]2(O)C1" ?
> 31.6 µM

Query for CCRF-CEM leukemia: what TGI does the record show for CC(NC1=NCCO1)c1ccco1 (centres undefined) ?
> 100 µM

Query for CCRF-CEM leukemia: what TGI does the record show for "Cc1nc(C)c(C(=O)NNC(=O)c2ccccc2)cc1C(=O)NNC(=O)c1ccccc1" ?
> 100 µM

Query for CCRF-CEM leukemia: what TGI does the record show for COc1ccc(C(OCC2OC(n3ccc(Oc4c(F)c(F)c(F)c(F)c4F)nc3=O)CC2OP(OCCC#N)N(C(C)C)C(C)C)(c2ccccc2)c2ccc(OC)cc2)cc1 (centres undefined) ?
> 100 µM

----------
Test system: KM12 colon
Assay: NCI tumour cell line growth inhibition, 48 h
*1 amine or outer side, *2 acyl side, *3 side chain or, on linkers, in order; H or OH if unused. Where a SMILES comes first, the peptide text is derived from it. [ ]: non-standard residue; d: D form. The star is where a group is joined. X12 = NCCCCC(N[*:1])C(=O)CN1CCCC1C(=O)[*:2]; Pentadecanoyl = CCCCCCCCCCCCCCC(=O)*
Recorded measurements of TGI, one per entry
Numeric answer only, unit µM assumed.

molecule	recorded-result
CCCCCCCCCCCCCCC(=O)NC(CCCCN)C(=O)CN1CCCC1C(=O)NCC(=O)NC(Cc1ccccc1)C(=O)N1CCCC1C(=O)NC(CO)C(=O)NC(Cc1ccc(O)cc1)C(=O)NC(CCCCN)C(=O)NC(CC(C)C)C(=O)NC(CCCN=C(N)N)C(=O)N1CCCC1C(=O)NCC(N)=O (stereo not drawn) (Pentadecanoyl-[X12]GFPSYKLRPG-NH2; configuration not given here)	38.7

Next item in the queue.
// query TGI value for entry CC(C(=O)C(C)O[Si](c1ccccc1)(c1ccccc1)C(C)(C)C)=P(c1ccccc1)(c1ccccc1)c1ccccc1 (stereo not drawn)
12.9

----------
Recorded measurements of TGI, one per entry
Tested on: SNB-78 CNS
Assay: NCI tumour cell line growth inhibition, 48 h

>>> print(df.to_string())
                                   molecule  readout  recorded_result
0                    C/C(=N/OCCC(=O)O)C1CC1      TGI         > 100 µM
1  CCC1C(=O)OCc2c1cc1n(c2=O)Cc2ccccc2-1 (stereo not drawn)      TGI         > 100 µM

Next item in the queue.
// query TGI value for entry "CC1(C)CC(=O)C=C(NC(=O)c2ccccc2)C1"
> 100 µM

Values were extracted from PubChem BioAssay (NCI).
